test: Antiproliferative activity against human HuH7 cells after 48 to 72 hrs by MTT assay; assay type: functional, cell-based; details: Huh-7
Measured IC50 of individual entries

{"sampleSmiles": "CC[P@@]1(=O)O[C@H]([C@H]2COC(C)(C)O2)[C@@H]2OC(C)(C)O[C@@H]2[C@@H]1O", "IC50": "> 100 µM"}
{"sampleSmiles": "CC1(C)O[C@@H]2[C@H](O1)[C@@H](O)[P@@](=O)(c1ccccc1)O[C@@H]2[C@H]1COC(C)(C)O1", "IC50": "> 100 µM"}
{"sampleSmiles": "CCCC[P@@]1(=O)O[C@H]([C@H]2COC(C)(C)O2)[C@@H]2OC(C)(C)O[C@@H]2[C@@H]1O", "IC50": "> 100 µM"}
